# System: HL-60(TB) leukemia
# protocol text: NCI-60 one-dose screen, 48 h (100 = growth as untreated, 0 = no growth, -100 = all killed)
# measurement context: 10 µM unless noted
This is part of a sample that, as a whole, favours compounds with a hit. Of some 83,000 tested, about 20% had one in any assay. The source made the active and inactive calls. The calls were made as follows: active = growth percent below 10; inactive = the rest.
Would you kindly list growth for each of these compounds?

Dear reader, for each entry below, please note its growth.
1. O=S(=O)(O)C1(O)CCCCC1
2. CCOC(=O)c1cc2c(n1Cc1ccccc1OC)-c1oncc1CCC2
3. CCC(=O)OC1=C(C)SC2=NC(c3ccc(Cl)c(Cl)c3)=CC(c3cc(OC)c(OC)c(OC)c3)N21 (stereo unspecified)

1: 87.6% (inactive); 2: 14.4% (inactive); 3: 97.8% (inactive)

Dear reader, for each entry below, please note its growth.
1. CCc1c(C)c2cc3nc(NCc4ccccc4)oc3c(C)c2oc1=O
2. CC(=O)CC(c1ccc([N+](=O)[O-])cc1)c1c(O)c2ccccc2oc1=O (stereo unspecified)

["80.6% (inactive)", "97% (inactive)"]

Dear reader, for each entry below, please note its growth.
1. OC(Cc1cccnc1)c1ccccc1 (stereo unspecified)
2. CCCCCCCCn1ccc2cc(NC(=O)Cn3cc(CN4CCCCC4)nn3)ccc21
3. COc1ccc(CN2C(=O)/C(=C\C(=O)c3ccc(OCCN4CCCCC4)cc3)c3ccccc32)cc1
4. CC(=O)/C(=C\c1c(-c2ccccc2)[nH]c2ccccc12)S(=O)(=O)c1ccccc1
5. COc1ccc(COC(C)=O)cc1
6. CCN1CCN(c2nc(NCCNc3ccnc4cc(Cl)ccc34)c3ccccc3n2)CC1

1. 64.3% (inactive)
2. -18.7% (active)
3. 20% (inactive)
4. -68.4% (active)
5. 112% (inactive)
6. -67.1% (active)

====

# System: HL-60(TB) leukemia
# protocol text: NCI-60 one-dose screen, 48 h
# measurement context: 10 µM unless noted
About 83,000 compounds went through this panel and 20% of them were active in at least one assay; those are over-represented in the sample as a whole. Activity calls are given as the source filed them. How the source made its calls: active means growth percent below 10; inactive means the rest.
Give your call using only these classes: active, inactive

Reference set (3 entries):
// outcome(item) with item = O=C(Nc1ccc(Oc2ccc(Nc3nc4ccccc4s3)cc2)cc1)Nc1ccc(Cl)c(Cl)c1
inactive

// outcome(item) with item = O=C(c1ccccc1)c1ccc(-c2ccc(O)cc2)cc1
inactive

// outcome(item) with item = COc1ccc(-c2nc3ccccn3c2/C=C/C(=O)c2cc(OC)c(OC)c(OC)c2)cc1
inactive

***
// outcome(item) with item = CCOC(=O)CC(S(=O)(=O)c1ccccc1)S(=O)(=O)c1ccccc1
inactive

// outcome(item) with item = COc1ccc(-n2sc(=O)n(Cc3ccc(COC(=O)C(C)c4ccc(CC(C)C)cc4)cc3)c2=O)cc1 (stereo not given)
active

====

Would you kindly list growth for each of these compounds?
# System: HL-60(TB) leukemia
# protocol text: NCI-60 one-dose screen, 48 h (100 = growth as untreated, 0 = no growth, -100 = all killed)
# measurement context: 10 µM unless noted
Compounds without any hit were thinned out: in the full panel of roughly 83,000, 20% have a hit. Activity calls are given as the source filed them. Rule for the calls: active = growth percent below 10; inactive = the rest.

Sample answers from the record:
growth reported for this compound Cc1cc(CC(=O)O)n(C)c1C(=O)c1ccc(Cl)cc1 : 105% (inactive)

growth reported for this compound c1ccc(C(NC2CC3CCC2C3)c2ccccc2)cc1 (stereo not given) : 100% (inactive)

Dear reader, for each entry below, please note its growth.
1. O=C1c2cccnc2C(=O)c2c1c(C(=O)OCCN1CCCCC1)c1ccccn21
2. CCOC(=O)c1c2c(n3ccc(C)cc13)C(=O)c1ccccc1C2=O
3. CCOc1c(C#N)c2c(N)ncnc2n1C1OC(CO)C(O)C1O (stereo not given)

1. -46.5% (active)
2. 76.1% (inactive)
3. 2.98% (active)

====

Would you kindly list growth for each of these molecules?
# Tested on: HL-60(TB) leukemia
# protocol text: NCI-60 one-dose screen, 48 h (100 = growth as untreated, 0 = no growth, -100 = all killed)
# measurement context: 10 µM unless noted
# Method: Growth inhibition of the HL-60(TB) human tumor cell line is measured as a screen for anti-cancer activity. Cells are grown in 96 well plates and exposed to the test compound for 48 hours. Compounds are tested at a single concentration, which is 10^-5 M for most compounds. The reported endpoint is percent growth (GI% or GIPRCNT), where numbers from 0 - 100% represent growth inhibition, and numbers from -100% - 0 represent cell death. For example, a value of 40 represents 60% growth inhibition. […]
This is part of a sample that, as a whole, favours compounds with a hit. Of some 83,000 tested, about 20% had one in any assay.
Numbers only, in %.

Sample answers from the record:
growth reported for this molecule COc1ccc(C(=S)c2cc(OC)c(OC)c(OC)c2)cc1OC(=O)CCl : -33

growth reported for this molecule Oc1ccc(/C=N/N=C2c3ccccc3-c3ccccc32)c(O)c1 : 71.7

Dear reader, for each entry below, please note its growth.
1. O=C1c2cc(Cl)ccc2S(=O)(=O)c2c(NCCCNCCO)nc3ccccc3c21
2. CC(C)c1ccc2c(c1)CCC1C2CCCC1(C)NCc1ccccc1 (stereo not given)
3. NC(CSSCC(N)C(=O)O)C(=O)O (stereo not given)
4. CN1CCN(c2ccc(NC(=O)c3cncnc3Nc3ccc(OCc4ccccn4)c(Cl)c3)cc2)CC1
5. CCc1cnn2c(NCc3ccc[n+]([O-])c3)cc(N3CCCC[C@H]3CCO)nc12

-27
22.9
-12.8
-57.9
-43.2

====

# System: HL-60(TB) leukemia
# protocol text: NCI-60 one-dose screen, 48 h (100 = growth as untreated, 0 = no growth, -100 = all killed)
# measurement context: 10 µM unless noted
About 83,000 compounds went through this panel and 20% of them were active in at least one assay; those are over-represented in the sample as a whole. Calls of active or inactive are those of the source. Rule for the calls: active = growth percent below 10; inactive = the rest.
reported metric: growth

growth reported for this molecule CC1(C)CC[C@]2(c3nnc(-c4ccncc4)o3)CC[C@H]3C(=CC[C@H]4[C@@]3(C)CC[C@H]3C(C)(C)C(=O)CC[C@]43C)[C@@H]2C1 : 3% (active)

growth reported for this molecule CCN1C(=O)N(CC)C2C1NN=c1s/c(=C\c3cccc([N+](=O)[O-])c3)c(=O)n12 (configuration not stated) : -37.1% (active)

growth reported for this molecule Cc1ccc(-c2cc(-c3cccc(Nc4ccnc5cc(Cl)ccc45)c3)nc3nc(N)[nH]c(=O)c23)cc1 : 58% (inactive)

growth reported for this molecule Cc1cn(-c2cc(C(=O)Nc3cccc(C#Cc4cccc5[nH]nc(N)c45)c3)cc(C(F)(F)F)c2)cn1 : 25.1% (inactive)

growth reported for this molecule O=C1N/C(=N\c2nnc(-c3ccc(O)cc3)s2)S/C1=C\c1ccccc1O : 104% (inactive)

Dear reader, for each entry below, please note its growth.
1. O=C1COCCN1c1ccc(Nc2nc(Cl)nc(OCc3cn(Cc4ccccc4)nn3)n2)cc1
2. Cc1cc2c(O)c(-c3cc(Cl)ccc3Cl)c3sc(=O)oc3c2cc1C

40.3% (inactive)
64.1% (inactive)

Dear reader, for each entry below, please note its growth.
1. CC(=O)OC1CC2C(C)(C)OC3CC(=O)OCC32C2CCC3(C)C(=CCC3c3ccoc3)C12C (configuration not stated)
2. COc1ncc(F)c(OC)n1

1. 116% (inactive)
2. 95.3% (inactive)

Dear reader, for each entry below, please note its growth.
1. C=C(C)[C@@H]1CC[C@]2(CO)CC[C@]3(C)[C@H](CC[C@@H]4[C@@]5(C)C=C(C#N)C(=O)C(C)(C)[C@@H]5CC[C@]43C)[C@@H]12
2. CCN(CC)c1ccc(NC(C(=O)c2ccccc2)c2ccccc2)cc1 (configuration not stated)
3. Cc1cc(O)c2c(c1O)C(=O)C13C(=C2O)C(=O)C2C(O)C1C1C(O)C3C(=O)C3=C(O)c4c(O)cc(C)c(O)c4C(=O)C321 (configuration not stated)

["-26.1% (active)", "65.5% (inactive)", "-19.7% (active)"]

Dear reader, for each entry below, please note its growth.
1. CCCCCCCCCCCCCCCCOP(=O)([O-])OCC[N+](C)(C)C
2. Cc1ccccc1/C=C/C(=O)c1cccc(OCCCOc2cccc(C(=O)/C=C/c3ccccc3C)c2)c1

-29.6% (active)
78.2% [3 µM] (inactive)

====

# System: HL-60(TB) leukemia
# protocol text: NCI-60 one-dose screen, 48 h
# measurement context: 10 µM unless noted
The panel holds about 83,000 compounds, 20% with a hit somewhere; the sample as a whole holds those more often. The source made the active and inactive calls. The calls were made as follows: active = growth percent below 10; inactive = the rest.
Give your call using only these classes: class 1 (active), class 0 (inactive)

// outcome(item) with item = CCOC(=O)C1CC(=O)c2cc(OC)c(OC)cc2C1 (stereo not given)
class 0

// outcome(item) with item = CSc1nc2c(c(=O)[nH]1)N=C1c3ccccc3C(=O)C1C(c1ccccc1)N2 (stereo not given)
class 1

// outcome(item) with item = O=C(Nc1nn(-c2ccc(Cl)cc2Cl)nc1-c1ccccc1)c1ccccc1
class 0

// outcome(item) with item = COc1ccc(C(=O)C2C(c3ccc(OC)cc3)CN(C)C23C(=O)Nc2ccccc23)cc1 (stereo not given)
class 0

// outcome(item) with item = O=C1/C(=C/c2ccc(F)cc2)COc2ccc(O)c(O)c21
class 1
